Test: physchem
Conditions: buffer, pH 7.4
chromatographic logD values by entry
Give the figure by itself; no unit, no explanation.

Query: GET /values?readout=chromatographic logD&item= COc1ccc(CC(=O)Nc2cnn(C(C)C)c2)cc1OC
Reply: 0.9

====

Assay: in vitro
Conditions: human, liver microsomes
Description: Metabolic stability in human liver microsomes
microsomal CLint values by entry

Query: GET /values?readout=microsomal CLint&item= COc1ccc(CC(=O)Nc2cnn(C(C)(C)C)c2)cc1OC
Reply: < 4.1 µL/min/mg

Query: GET /values?readout=microsomal CLint&item= CC(=O)c1ccc(N2CCN(C(=O)c3cnn(C(F)(F)F)c3)CC2)cc1
Reply: < 3 µL/min/mg

Query: GET /values?readout=microsomal CLint&item= COc1ccc(CC(=O)Nc2cnn(C)c2)cc1OC
Reply: < 3 µL/min/mg

Query: GET /values?readout=microsomal CLint&item= CN(C)[C@H]1CC[C@H](Nc2nc(Nc3cnn(C(F)(F)F)c3)nn3cccc23)CC1
Reply: < 3 µL/min/mg

====

Assay: physchem
Details: buffer, pH 7.4
logD values by entry
Give the figure by itself; no unit, no explanation.

Solved cases (3 shown):
>>> numeric_readout("CC(=O)c1ccc(N2CCN(C(=O)c3cnn(C(C)(C)C)c3)CC2)cc1")
2.2
>>> numeric_readout("COc1ccc(CC(=O)Nc2cnn(C(C)(C)C)c2)cc1OC")
2
>>> numeric_readout("COc1ccc(CC(=O)Nc2cnn(C(F)(F)F)c2)cc1OC")
2.4

Attention now turns to another entry.
Query: GET /values?readout=logD&item= COc1ccc(CC(=O)Nc2cnn(C(C)C)c2)cc1OC
Reply: 1.6

====

Assay: in vitro
Details: human, Caco-2
Description: Passive permeability from apical to basolateral side in human Caco-2 cells
Papp A→B values by entry

Solved cases (5 shown):
>>> result("Cn1cc(Nc2nc(N[C@H]3CC[C@H](N(C)C)CC3)c3cccn3n2)cn1")
"2.4 ×10⁻⁶ cm/s"
>>> result("CC(=O)c1ccc(N2CCN(C(=O)c3cnn(C(C)C)c3)CC2)cc1")
"40 ×10⁻⁶ cm/s"
>>> result("FC(F)(F)n1c(-c2cscn2)nc2ccccc21")
"58 ×10⁻⁶ cm/s"
>>> result("CN(C)[C@H]1CC[C@H](Nc2nc(Nc3cnn(C(C)(C)C)c3)nn3cccc23)CC1")
"11 ×10⁻⁶ cm/s"
>>> result("Cn1c(-c2cscn2)nc2ccccc21")
"72 ×10⁻⁶ cm/s"

Query: GET /values?readout=Papp A→B&item= COc1ccc(CC(=O)Nc2cnn(C(C)(C)C)c2)cc1OC
Reply: 45 ×10⁻⁶ cm/s

Query: GET /values?readout=Papp A→B&item= CC(C)n1cc(Nc2nc(N[C@H]3CC[C@H](N(C)C)CC3)c3cccn3n2)cn1
Reply: 8.4 ×10⁻⁶ cm/s

Query: GET /values?readout=Papp A→B&item= COc1ccc(CC(=O)Nc2cnn(C(C)C)c2)cc1OC
Reply: 44 ×10⁻⁶ cm/s

Query: GET /values?readout=Papp A→B&item= CC(=O)c1ccc(N2CCN(C(=O)c3cnn(C(F)(F)F)c3)CC2)cc1
Reply: 71 ×10⁻⁶ cm/s

Query: GET /values?readout=Papp A→B&item= COc1ccc(CC(=O)Nc2cnn(C)c2)cc1OC
Reply: 42 ×10⁻⁶ cm/s

Query: GET /values?readout=Papp A→B&item= CN(C)[C@H]1CC[C@H](Nc2nc(Nc3cnn(C(F)(F)F)c3)nn3cccc23)CC1
Reply: 12 ×10⁻⁶ cm/s

====

half-life values by entry
Test: physchem
Settings: 20 mM sodium carbonate buffer, pH 10
Description: Half life in 20 mM sodium carbonate buffer at pH 10 at 25 degC by UPLC analysis
Report as a plain number; the unit days is understood.

Solved cases (2 shown):
>>> numeric_readout("CC(=O)c1ccc(N2CCN(C(=O)c3cnn(C(F)(F)F)c3)CC2)cc1")
17
>>> numeric_readout("Cc1cc(NS(=O)(=O)c2ccc(N(C)C(F)(F)F)cc2)no1")
0.3

Query: GET /values?readout=half-life&item= CN(C)[C@H]1CC[C@H](Nc2nc(Nc3cnn(C(F)(F)F)c3)nn3cccc23)CC1
Reply: 71

====

Test: in vitro
Conditions: human, liver microsomes
microsomal CLint values by entry
Report as a plain number; the unit µL/min/mg is understood.

>>> numeric_readout("FC(F)(F)n1c(-c2cscn2)nc2ccccc21")
39
>>> numeric_readout("COc1ccc(CC(=O)Nc2cnn(C(F)(F)F)c2)cc1OC")
53

Query: GET /values?readout=microsomal CLint&item= Cc1ccc(-c2cn(C)cn2)cc1NC(=O)c1ccc(OCc2ccccn2)cc1
Reply: 4.8

====

Test: physchem
Description: Dissociation constant, pKa2 of compound by spectrophotometry
Metric Name: pKa
Give the figure by itself; no unit, no explanation.

Query: GET /values?readout=pKa&item= Cc1ccc(-c2cn(C)cn2)cc1NC(=O)c1ccc(OCc2ccccn2)cc1
Reply: 3.9

====

Test: physchem
Conditions: 20 mM sodium phosphate buffer, pH 7.4
Description: Half life in 20 mM sodium phosphate buffer at pH 7.4 at 25 degC by UPLC analysis
Metric Name: half-life

>>> result("FC(F)(F)n1c(-c2cscn2)nc2ccccc21")
"> 72 days"

Query: GET /values?readout=half-life&item= CCCCN(c1ccc(C(=O)OCCN(C)C)cc1)C(F)(F)F
Reply: < 0.6 days

====

Experiment: physchem
Conditions: 0.1 M HCl solution, pH 1
Description: Half life in 0.1 M HCl solution at pH 1.0 at 25 degC by UPLC analysis
Metric Name: half-life

>>> result("CN(C)[C@H]1CC[C@H](Nc2nc(Nc3cnn(C(F)(F)F)c3)nn3cccc23)CC1")
"> 72 days"

Query: GET /values?readout=half-life&item= CCCCN(c1ccc(C(=O)OCCN(C)C)cc1)C(F)(F)F
Reply: < 0.6 days

Query: GET /values?readout=half-life&item= CCCc1nn(C)c2c(=O)[nH]c(-c3cc(S(=O)(=O)N4CCN(C(F)(F)F)CC4)ccc3CC)nc12
Reply: < 1.3 days

Query: GET /values?readout=half-life&item= CC(=O)c1ccc(N2CCN(C(=O)c3cnn(C(F)(F)F)c3)CC2)cc1
Reply: 41 days

Query: GET /values?readout=half-life&item= FC(F)(F)n1c(-c2cscn2)nc2ccccc21
Reply: > 72 days

Query: GET /values?readout=half-life&item= Cc1cc(NS(=O)(=O)c2ccc(N(C)C(F)(F)F)cc2)no1
Reply: 0.2 days

Query: GET /values?readout=half-life&item= COc1ccc(CC(=O)Nc2cnn(C(F)(F)F)c2)cc1OC
Reply: 12 days

====

Test: Stability in presence of glutathione by LC-MS analysis
Assay type: physicochemical
Conditions: solution with glutathione
Metric Name: half-life (h)
Report as a plain number; the unit h is understood.

Query: GET /values?readout=half-life&item= CCCCN(C(=O)F)c1ccc(C(=O)OCCN(C)C)cc1
Reply: 1.1

====

Assay: physchem
Settings: buffer, pH 7.4
Metric Name: logD
Give the figure by itself; no unit, no explanation.

>>> numeric_readout("CC(=O)c1ccc(N2CCN(C(=O)c3cnn(C(C)C)c3)CC2)cc1")
1.8
>>> numeric_readout("Cc1cc(NS(=O)(=O)c2ccc(N(C)C(F)(F)F)cc2)no1")
1.6
>>> numeric_readout("Cn1cc(Nc2nc(N[C@H]3CC[C@H](N(C)C)CC3)c3cccn3n2)cn1")
0.6

Query: GET /values?readout=logD&item= Cn1c(-c2cscn2)nc2ccccc21
Reply: 2.3

====

Test: physchem
Conditions: buffer, pH 7.4
Use criterion met when the recorded chromatographic logD is no lower than 2; use criterion not met when it is lower.

Example results:
>>> qualitative_label("CC(=O)c1ccc(N2CCN(C(=O)c3cnn(C)c3)CC2)cc1")
"criterion not met"
>>> qualitative_label("CC(=O)c1ccc(N2CCN(C(=O)c3cnn(C(C)C)c3)CC2)cc1")
"criterion not met"
>>> qualitative_label("Cn1cc(Nc2nc(N[C@H]3CC[C@H](N(C)C)CC3)c3cccn3n2)cn1")
"criterion not met"

Query: Is reported chromatographic logD greater than or equal to 2 here: COc1ccc(CC(=O)Nc2cnn(C)c2)cc1OC
Reply: criterion not met

Query: Is reported chromatographic logD greater than or equal to 2 here: COc1ccc(CC(=O)Nc2cnn(C(C)(C)C)c2)cc1OC
Reply: criterion not met

Query: Is reported chromatographic logD greater than or equal to 2 here: CC(C)n1cc(Nc2nc(N[C@H]3CC[C@H](N(C)C)CC3)c3cccn3n2)cn1
Reply: criterion not met

Query: Is reported chromatographic logD greater than or equal to 2 here: FC(F)(F)n1c(-c2cscn2)nc2ccccc21
Reply: criterion met

Query: Is reported chromatographic logD greater than or equal to 2 here: Cc1ccc(-c2cn(C)cn2)cc1NC(=O)c1ccc(OCc2ccccn2)cc1
Reply: criterion met

Query: Is reported chromatographic logD greater than or equal to 2 here: CCCc1nn(C)c2c(=O)[nH]c(-c3cc(S(=O)(=O)N4CCN(C)CC4)ccc3CC)nc12
Reply: criterion met

Query: Is reported chromatographic logD greater than or equal to 2 here: Cc1cc(NS(=O)(=O)c2ccc(N(C)C)cc2)no1
Reply: criterion not met

Query: Is reported chromatographic logD greater than or equal to 2 here: CCCCN(c1ccc(C(=O)OCCN(C)C)cc1)C(F)(F)F
Reply: criterion met

Query: Is reported chromatographic logD greater than or equal to 2 here: CC(=O)c1ccc(N2CCN(C(=O)c3cnn(C(C)(C)C)c3)CC2)cc1
Reply: criterion met

Query: Is reported chromatographic logD greater than or equal to 2 here: CN(C)[C@H]1CC[C@H](Nc2nc(Nc3cnn(C(F)(F)F)c3)nn3cccc23)CC1
Reply: criterion met

Query: Is reported chromatographic logD greater than or equal to 2 here: Cc1cc(NS(=O)(=O)c2ccc(N(C)C(F)(F)F)cc2)no1
Reply: criterion not met

Query: Is reported chromatographic logD greater than or equal to 2 here: CC(=O)c1ccc(N2CCN(C(=O)c3cnn(C(F)(F)F)c3)CC2)cc1
Reply: criterion met

Query: Is reported chromatographic logD greater than or equal to 2 here: CN(C)[C@H]1CC[C@H](Nc2nc(Nc3cnn(C(C)(C)C)c3)nn3cccc23)CC1
Reply: criterion not met

Query: Is reported chromatographic logD greater than or equal to 2 here: Cn1c(-c2cscn2)nc2ccccc21
Reply: criterion not met

Query: Is reported chromatographic logD greater than or equal to 2 here: CCCc1nn(C)c2c(=O)[nH]c(-c3cc(S(=O)(=O)N4CCN(C(F)(F)F)CC4)ccc3CC)nc12
Reply: criterion met

Query: Is reported chromatographic logD greater than or equal to 2 here: COc1ccc(CC(=O)Nc2cnn(C(F)(F)F)c2)cc1OC
Reply: criterion met

Query: Is reported chromatographic logD greater than or equal to 2 here: CCCCN(C)c1ccc(C(=O)OCCN(C)C)cc1
Reply: criterion met
